Some compounds, each annotated with its measured MIC90.
Test system: Escherichia coli
Test: Antimicrobial activity against Escherichia coli extended-spectrum beta-lactamase producing isolate by Etest
Type: functional

COMPOUND	MIC90
C[C@H]1COc2c(N3CCN(C)CC3)c(F)cc3c(=O)c(C(=O)O)cn1c23.C[C@H]1COc2c(N3CCN(C)CC3)c(F)cc3c(=O)c(C(=O)O)cn1c23.O [LEVOFLOXACIN]	> 16 µg/mL
CN(C)c1cc(NC(=O)CNC(C)(C)C)c(O)c2c1C[C@H]1C[C@H]3[C@H](N(C)C)C(O)=C(C(N)=O)C(=O)[C@@]3(O)C(O)=C1C2=O [TIGECYCLINE]	0.5 µg/mL
NC[C@H]1O[C@H](O[C@H]2[C@H](O)[C@@H](O[C@H]3O[C@H](CO)[C@@H](O)[C@H](N)[C@H]3O)[C@H](N)C[C@@H]2N)[C@H](N)C[C@@H]1O [TOBRAMYCIN]	> 32 µg/mL

---

System: Escherichia coli
Assay: Antimicrobial activity against Escherichia coli expressing beta-lactamase SHV by Etest
Format: functional
Some compounds, each annotated with its measured MIC.
MEASUREMENT_TYPE: MIC

>>> df
                                   compound      result
0  CN(C)c1ccc(O)c2c1C[C@H]1C[C@H]3[C@H](N(C)C)C(O)=C(C(N)=O)C(=O)[C@@]3(O)C(O)=C1C2=O     2 µg/mL
1  CN(C)c1cc(NC(=O)CNC(C)(C)C)c(O)c2c1C[C@H]1C[C@H]3[C@H](N(C)C)C(O)=C(C(N)=O)C(=O)[C@@]3(O)C(O)=C1C2=O  0.12 µg/mL
2  CO/N=C(\C(=O)N[C@@H]1C(=O)N2C(C(=O)O)=C(COC(C)=O)CS[C@H]12)c1csc(N)n1     4 µg/mL
3  NC[C@H]1O[C@H](O[C@H]2[C@H](O)[C@@H](O[C@H]3O[C@H](CO)[C@@H](O)[C@H](N)[C@H]3O)[C@H](N)C[C@@H]2N)[C@H](N)C[C@@H]1O  0.25 µg/mL
4  CO/N=C(\C(=O)N[C@@H]1C(=O)N2C(C(=O)O)=C(CSc3nc(=O)c(O)nn3C)CS[C@H]12)c1csc(N)n1     4 µg/mL
5  CC(C)(O/N=C(\C(=O)N[C@@H]1C(=O)N2C(C(=O)[O-])=C(C[n+]3ccccc3)CS[C@H]12)c1csc(N)n1)C(=O)O    16 µg/mL
6  CO/N=C(\C(=O)N[C@@H]1C(=O)N2C(C(=O)[O-])=C(C[N+]3(C)CCCC3)CS[C@H]12)c1csc(N)n1 [CEFEPIME]     2 µg/mL

---

Tested on: Klebsiella pneumoniae
Test: Antimicrobial activity against Klebsiella pneumoniae extended-spectrum beta-lactamase producing isolate by Etest
Format: functional
Some compounds, each annotated with its measured MIC50.
MEASUREMENT_TYPE: MIC50 (µg/mL)

>>> df
                                   compound  censoring_qualifier  recorded_number
0  CN(C)c1cc(NC(=O)CNC(C)(C)C)c(O)c2c1C[C@H]1C[C@H]3[C@H](N(C)C)C(O)=C(C(N)=O)C(=O)[C@@]3(O)C(O)=C1C2=O                    =              0.5
1  C[C@@H](O)[C@H]1C(=O)N2C(C(=O)O)=C(SCCNC=N)C[C@H]12 [IMIPENEM ANHYDROUS]                    =             0.25
2  NC[C@H]1O[C@H](O[C@H]2[C@H](O)[C@@H](O[C@H]3O[C@H](CO)[C@@H](O)[C@H](N)[C@H]3O)[C@H](N)C[C@@H]2N)[C@H](N)C[C@@H]1O                    =               32
3  C[C@H]1COc2c(N3CCN(C)CC3)c(F)cc3c(=O)c(C(=O)O)cn1c23.C[C@H]1COc2c(N3CCN(C)CC3)c(F)cc3c(=O)c(C(=O)O)cn1c23.O                    =                2
4  CO/N=C(\C(=O)N[C@@H]1C(=O)N2C(C(=O)[O-])=C(C[N+]3(C)CCCC3)CS[C@H]12)c1csc(N)n1 [CEFEPIME]                    =                8
5  CC(C)(O/N=C(\C(=O)N[C@@H]1C(=O)N2C(C(=O)[O-])=C(C[n+]3ccccc3)CS[C@H]12)c1csc(N)n1)C(=O)O                    =               32
6  CO/N=C(\C(=O)N[C@@H]1C(=O)N2C(C(=O)O)=C(COC(C)=O)CS[C@H]12)c1csc(N)n1                    >               32
7  CO/N=C(\C(=O)N[C@@H]1C(=O)N2C(C(=O)O)=C(CSc3nc(=O)c(O)nn3C)CS[C@H]12)c1csc(N)n1                    >               32
8  CN(C)c1ccc(O)c2c1C[C@H]1C[C@H]3[C@H](N(C)C)C(O)=C(C(N)=O)C(=O)[C@@]3(O)C(O)=C1C2=O                    =                4

---

Some molecules, each annotated with its measured MIC90.
System: Klebsiella pneumoniae
Test: Antimicrobial activity against Klebsiella pneumoniae expressing beta-lactamase CTX by Etest based on single determinant
Type: functional

MOLECULE	MIC90
CC(C)(O/N=C(\C(=O)N[C@@H]1C(=O)N2C(C(=O)[O-])=C(C[n+]3ccccc3)CS[C@H]12)c1csc(N)n1)C(=O)O [CEFTAZIDIME]	> 64 mg/L
C[C@@H](O)[C@H]1C(=O)N2C(C(=O)O)=C(SCCNC=N)C[C@H]12 [IMIPENEM ANHYDROUS]	0.5 mg/L
NC[C@H]1O[C@H](O[C@H]2[C@H](O)[C@@H](O[C@H]3O[C@H](CO)[C@@H](O)[C@H](N)[C@H]3O)[C@H](N)C[C@@H]2N)[C@H](N)C[C@@H]1O [TOBRAMYCIN]	> 32 mg/L

---

Tested on: Klebsiella pneumoniae
Assay: Antimicrobial activity against Klebsiella pneumoniae expressing beta-lactamase CTX by Etest based on single determinant
Assay type: functional

MOLECULE	ASSAYED_TARGET	MIC90
CO/N=C(\C(=O)N[C@@H]1C(=O)N2C(C(=O)O)=C(CSc3nc(=O)c(O)nn3C)CS[C@H]12)c1csc(N)n1 [CEFTRIAXONE]	Klebsiella pneumoniae	> 32 µg/mL
CN(C)c1ccc(O)c2c1C[C@H]1C[C@H]3[C@H](N(C)C)C(O)=C(C(N)=O)C(=O)[C@@]3(O)C(O)=C1C2=O [MINOCYCLINE]	Klebsiella pneumoniae	32 µg/mL
CN(C)c1cc(NC(=O)CNC(C)(C)C)c(O)c2c1C[C@H]1C[C@H]3[C@H](N(C)C)C(O)=C(C(N)=O)C(=O)[C@@]3(O)C(O)=C1C2=O [TIGECYCLINE]	Klebsiella pneumoniae	2 µg/mL
C[C@H]1COc2c(N3CCN(C)CC3)c(F)cc3c(=O)c(C(=O)O)cn1c23.C[C@H]1COc2c(N3CCN(C)CC3)c(F)cc3c(=O)c(C(=O)O)cn1c23.O [LEVOFLOXACIN]	Klebsiella pneumoniae	> 16 µg/mL
CO/N=C(\C(=O)N[C@@H]1C(=O)N2C(C(=O)[O-])=C(C[N+]3(C)CCCC3)CS[C@H]12)c1csc(N)n1 [CEFEPIME]	Klebsiella pneumoniae	> 16 µg/mL
CO/N=C(\C(=O)N[C@@H]1C(=O)N2C(C(=O)O)=C(COC(C)=O)CS[C@H]12)c1csc(N)n1 [CEFOTAXIME]	Klebsiella pneumoniae	> 32 µg/mL

---

Tested on: Klebsiella pneumoniae
Assay: Antimicrobial activity against Klebsiella pneumoniae expressing beta-lactamase CTX by Etest based on multiple determinants
Type: functional
Some compounds, each annotated with its measured MIC90.
MEASUREMENT_TYPE: MIC90 (µg/mL)

>>> print(df.to_string())
                                   compound  measurement_type  censoring_qualifier  recorded_number
0  NC[C@H]1O[C@H](O[C@H]2[C@H](O)[C@@H](O[C@H]3O[C@H](CO)[C@@H](O)[C@H](N)[C@H]3O)[C@H](N)C[C@@H]2N)[C@H](N)C[C@@H]1O             MIC90                    >               32
1  CN(C)c1ccc(O)c2c1C[C@H]1C[C@H]3[C@H](N(C)C)C(O)=C(C(N)=O)C(=O)[C@@]3(O)C(O)=C1C2=O             MIC90                    =               16
2  C[C@H]1COc2c(N3CCN(C)CC3)c(F)cc3c(=O)c(C(=O)O)cn1c23.C[C@H]1COc2c(N3CCN(C)CC3)c(F)cc3c(=O)c(C(=O)O)cn1c23.O             MIC90                    =               16
3  CO/N=C(\C(=O)N[C@@H]1C(=O)N2C(C(=O)[O-])=C(C[N+]3(C)CCCC3)CS[C@H]12)c1csc(N)n1 [CEFEPIME]             MIC90                    >               16
4  CC(C)(O/N=C(\C(=O)N[C@@H]1C(=O)N2C(C(=O)[O-])=C(C[n+]3ccccc3)CS[C@H]12)c1csc(N)n1)C(=O)O             MIC90                    >               64
5  C[C@@H](O)[C@H]1C(=O)N2C(C(=O)O)=C(SCCNC=N)C[C@H]12 [IMIPENEM ANHYDROUS]             MIC90                    =              0.5
6  CN(C)c1cc(NC(=O)CNC(C)(C)C)c(O)c2c1C[C@H]1C[C@H]3[C@H](N(C)C)C(O)=C(C(N)=O)C(=O)[C@@]3(O)C(O)=C1C2=O             MIC90                    =                1
7  CO/N=C(\C(=O)N[C@@H]1C(=O)N2C(C(=O)O)=C(CSc3nc(=O)c(O)nn3C)CS[C@H]12)c1csc(N)n1             MIC90                    >               32
8  CO/N=C(\C(=O)N[C@@H]1C(=O)N2C(C(=O)O)=C(COC(C)=O)CS[C@H]12)c1csc(N)n1             MIC90                    >               32
